Species on record: Rattus norvegicus
Experiment: In vitro anti-oxytocic potency was recorded in absence of Mg2+ in rat uteri
Type: functional
Settings: read-out: pA2 (converted)
Residues, ends and D or L forms follow the SMILES beside them.
Reported Kb values are given for each entry in this list.

molecule=CCC1(CC)CC(=O)N[C@@H](Cc2ccc(O)cc2)C(=O)N[C@H](Cc2ccccc2)C(=O)N[C@@H](C(C)C)C(=O)N[C@H](CC(N)=O)C(=O)N[C@@H](C(=O)N2CCC[C@H]2C(=O)N[C@H](CCCN=C(N)N)C(=O)NCC(N)=O)CSS1 property_name=Kb endpoint_result="51.3 nM"

IN: Consider the molecule CC(C)[C@@H]1NC(=O)[C@H](Cc2ccccc2)NC(=O)[C@H](Cc2ccc(O)cc2)NC(=O)CC2(CCCCC2)SSC[C@@H](C(=O)N2CCC[C@H]2C(=O)N[C@H](CCCN=C(N)N)C(=O)NCC(N)=O)NC(=O)[C@H](CC(N)=O)NC1=O (HELM PEPTIDE1{Y.F.V.N.C.P.[dR].G.[am]}|CHEM1{[O=C(CC1(S[*:2])CCCCC1)[*:1]]}$PEPTIDE1,CHEM1,1:R1-1:R1|PEPTIDE1,CHEM1,5:R3-1:R2$$$V2.0) and give its measured Kb.
OUT: 234 nM

Hello, the source for this data is ChEMBL document CHEMBL1122193, in case you need it.
